# hERG current change (%, negative = inhibition) at 10uM per record follows
# Test Target: human ether-à-go-go-related gene (hERG) potassium channel (human);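 note: peak tail current of the secondary pulse compared with the same well before compound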
# Sequence (Q12809 whole entry, looked up): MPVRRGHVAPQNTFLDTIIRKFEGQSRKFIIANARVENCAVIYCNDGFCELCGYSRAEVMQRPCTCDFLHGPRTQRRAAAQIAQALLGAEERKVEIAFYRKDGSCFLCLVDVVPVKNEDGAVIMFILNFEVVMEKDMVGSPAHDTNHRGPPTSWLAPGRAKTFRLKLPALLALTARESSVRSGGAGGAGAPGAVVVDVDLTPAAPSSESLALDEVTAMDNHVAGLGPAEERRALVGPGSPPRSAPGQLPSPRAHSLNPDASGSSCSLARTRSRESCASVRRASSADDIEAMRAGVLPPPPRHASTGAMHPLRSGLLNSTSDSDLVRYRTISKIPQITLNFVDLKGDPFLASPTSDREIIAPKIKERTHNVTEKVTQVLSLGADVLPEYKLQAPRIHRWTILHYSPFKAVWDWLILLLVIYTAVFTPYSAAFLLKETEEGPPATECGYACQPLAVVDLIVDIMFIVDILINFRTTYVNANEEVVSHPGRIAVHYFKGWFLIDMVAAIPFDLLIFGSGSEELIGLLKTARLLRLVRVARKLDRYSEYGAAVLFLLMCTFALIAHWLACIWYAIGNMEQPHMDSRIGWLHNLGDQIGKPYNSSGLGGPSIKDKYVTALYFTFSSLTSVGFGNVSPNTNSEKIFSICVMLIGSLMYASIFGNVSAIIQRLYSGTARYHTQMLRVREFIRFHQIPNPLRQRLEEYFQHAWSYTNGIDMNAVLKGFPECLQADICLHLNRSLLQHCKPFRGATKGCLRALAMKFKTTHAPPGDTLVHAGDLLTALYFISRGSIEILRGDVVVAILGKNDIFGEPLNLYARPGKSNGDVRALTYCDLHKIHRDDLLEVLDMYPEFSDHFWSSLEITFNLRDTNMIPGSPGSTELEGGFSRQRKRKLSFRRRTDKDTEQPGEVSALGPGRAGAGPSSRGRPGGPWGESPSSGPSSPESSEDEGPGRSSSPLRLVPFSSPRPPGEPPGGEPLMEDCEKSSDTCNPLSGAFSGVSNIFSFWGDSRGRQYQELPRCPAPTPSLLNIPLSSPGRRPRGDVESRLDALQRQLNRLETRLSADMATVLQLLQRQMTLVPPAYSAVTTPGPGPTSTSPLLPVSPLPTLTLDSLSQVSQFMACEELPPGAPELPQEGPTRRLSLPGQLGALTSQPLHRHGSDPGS
# Assay Comment: primary screen, population patch clamp on CHO cells stably expressing hERG; higher = less effect of the substance
Hit rate of the full screen: of about 310,000 compounds, about 14,000 (4.5%) showed an effect of 50% or more. The effect is printed as a negative number. Only a selection was taken, and strong results are over-represented in it overall.
Test Readout: hERG current change (%, negative = inhibition) at 10uM (%)

>>> assay_result("Cn1c2ccccc2c2cc(/C=C(\\NC(=O)c3ccccc3)C(=O)O)ccc21")
9.22
>>> assay_result("C=CCNc1nc(NCC)nc(N2CCOCC2)n1")
-0.791
>>> assay_result("COc1ccc(C)cc1S(=O)(=O)NCCN1CCOCC1")
17.5
>>> assay_result("CN(CCc1ccccn1)C(=O)Nc1ccc(C(C)(C)C)cc1")
-19.3
>>> assay_result("COc1cc(OC)cc(OC(=O)C2CCN(C(=O)c3ccc(Cl)cc3)CC2)c1")
-33.9
>>> assay_result("CCN(C(=O)COc1ccc(C(=O)c2ccccc2)cc1)c1ccccc1")
-18.9
>>> assay_result("COc1ccc(C(=O)N2CCC(C(=O)c3c(C)cc(C)cc3C)CC2)cc1")
-55.3
>>> assay_result("C=CCNC(=O)/C(=C\\c1ccc2c(c1)OCO2)NC(=O)c1ccc(Br)cc1")
-30
>>> assay_result("CSCCC(NC(=O)c1ccccc1Br)C(=O)NNC(=O)c1csc(N2CCOCC2)n1 (stereo not shown)")
-33.5
>>> assay_result("COCCCNC(=O)[C@H]1N2C(=O)c3ccccc3C2SC1(C)C (stereo partly shown)")
15.3
>>> assay_result("CCCC(C)NC(=O)COC(=O)c1ccc(Cl)c(S(N)(=O)=O)c1 (stereo not shown)")
8.02
>>> assay_result("Cc1nccn1CC(=O)N/N=C/c1cc(Br)cs1")
6.58
>>> assay_result("COC(=O)/C(=C\\c1cc(OC)c(OC)c(OC)c1)c1nc2ccccc2[nH]1.Cl")
19
>>> assay_result("O=C(c1ccc(Cl)cc1)N1CCN(c2ccc(F)cc2)CC1")
-34
>>> assay_result("CC(C)Cc1nnc(NC(=O)CN2C(=O)NC3(CC(C)CC(C)(C)C3)C2=O)s1 (stereo not shown)")
-20.5
>>> assay_result("Cc1ccc(S(=O)(=O)NCCCNc2ccc([N+](=O)[O-])cc2)cc1")
-65.2
>>> assay_result("CCN(Cc1ccccc1)Cc1cccc([N+](=O)[O-])c1")
-23.5
>>> assay_result("O=[N+]([O-])c1ccc(NCCCNS(=O)(=O)c2ccccc2)c(Cl)c1")
-14.3
>>> assay_result("COCOc1ccc(C=O)c(O)c1")
7.21
>>> assay_result("CN1CCCC(CC2c3ccccc3Sc3ccccc32)C1.Cl.O (stereo not shown)")
-52.9
>>> assay_result("COCCCNC(=O)c1ccc(CS(=O)(=O)c2ccc(Br)cc2)o1")
-14.3
>>> assay_result("COc1ccc(C)cc1NC(=S)N1CC(C)OC(C)C1 (stereo not shown)")
-11.5

###

Below is a list of entries, each paired with its recorded hERG current change (%, negative = inhibition) at 10uM value.
# Test Target: human ether-à-go-go-related gene (hERG) potassium channel (human);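 note: peak tail current of the secondary pulse compared with the same well before compound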
# Assay Comment: primary screen, population patch clamp on CHO cells stably expressing hERG; higher = less effect of the substance
Screen size: about 310,000 compounds; about 14,000 (4.5%) showed an effect of 50% or more. Effects have a minus sign here. This excerpt belongs to a sample that is enriched for strong results.
Test Readout: hERG current change (%, negative = inhibition) at 10uM (%)

>>> assay_result("O=C(NC1CCCCC1)N1CCN(c2ccc([N+](=O)[O-])cc2)CC1")
-92.4
>>> assay_result("N=c1c2c(ncn1CCCO)Oc1c(ccc3ccccc13)C2c1ccccc1 (centres unmarked)")
-70.4
>>> assay_result("c1ccc(-n2nnnc2SCc2ccccn2)cc1")
7.26
>>> assay_result("O=C(NC1CCCCC1)N1CCN(c2ccc(Cl)cc2)CC1")
-27.8
>>> assay_result("COC(=O)CSc1ccc2nnc(CCNS(=O)(=O)c3ccccc3)n2n1")
24.3
>>> assay_result("S=C(NC1CCCC1)N1CCN(c2ccc(Cl)cc2)CC1")
-13.6
>>> assay_result("O=[N+]([O-])c1ccc(N2CCN(C(=S)NC3CCCCC3)CC2)cc1")
-53
>>> assay_result("O=C(NC(=S)Nc1ccccc1N1CCCC1)c1ccc(-c2cccc([N+](=O)[O-])c2)o1")
-26.7
